Where do the numbers come from? From ChEMBL document CHEMBL1125733.

Each item that follows carries a reported S.
Respond numerically; units are µg/mL and should not be typed.

sampleSmiles	readoutType	val
CC(C)(C)n1cc(C(=O)O)c(=O)c2cc(F)c(N3CCNCC3)nc21	S	820
CC(C)(CF)n1cc(C(=O)O)c(=O)c2cc(F)c(N3CC[C@H](N)C3)cc21.CS(=O)(=O)O	S	370
CC(C)(C)n1cc(C(=O)O)c(=O)c2cc(F)c(N3CCNCC3)cc21	S	130
CC(C)(CF)n1cc(C(=O)O)c(=O)c2cc(F)c(N3CC4C[C@@H]3CN4)nc21.Cl	S	200
Cl.O=C(O)c1cn(C(CF)(CF)CF)c2nc(N3CC4C[C@@H]3CN4)c(F)cc2c1=O	S	240
CC(C)(C)n1cc(C(=O)O)c(=O)c2cc(F)c(N3CC[C@H](N)C3)cc21.CS(=O)(=O)O	S	250
CC(C)(CF)n1cc(C(=O)O)c(=O)c2cc(F)c(N3CCNCC3)nc21.Cl	S	1600

# input for lookup
Req: Given `CC(C)(C)n1cc(C(=O)O)c(=O)c2cc(F)c(N3C[C@H]4C[C@@H]3CN4)nc21` , state its recorded S.
Resp: 80

----------
experiment: Compound was evaluated in vivo in blood samples from the orbital sinus for its half life after 40 mg/kg of intramuscular administration in mice.; type: ADME, organism-based; parameters: dose 40 mg/kg, route intramuscular; settings: mouse, im
readoutType: half-life (h)
Respond numerically; units are h and should not be typed.

sampleSmiles	half-life, h
CC(C)(CF)n1cc(C(=O)O)c(=O)c2cc(F)c(N3CC[C@H](N)C3)cc21.CS(=O)(=O)O	1.82

Req: Given `CN1CCN(c2c(F)cc3c(=O)c(C(=O)O)cn(CCF)c3c2F)CC1` , state its recorded half-life.
Resp: 1.02

Req: Given `CC(C)(C)n1cc(C(=O)O)c(=O)c2cc(F)c(N3C[C@H]4C[C@@H]3CN4)nc21` , state its recorded half-life.
Resp: 1.58

Req: Given `CC(C)(C)n1cc(C(=O)O)c(=O)c2cc(F)c(N3CC[C@H](N)C3)cc21.CS(=O)(=O)O` , state its recorded half-life.
Resp: 0.9

----------
test: Compound was evaluated in vivo in blood samples from the orbital sinus for its concentration after a peroral administration of 40 mg/kg in mice; format: ADME, organism-based; set-up: dose 40 mg/kg, route oral; conditions: mouse, po
readoutType: Cmax

Req: Given `CC(C)(C)n1cc(C(=O)O)c(=O)c2cc(F)c(N3CC[C@H](N)C3)cc21.CS(=O)(=O)O` , state its recorded Cmax.
Resp: 3000 ng/mL

----------
Each item that follows carries a reported AUC.
species on record: Canis familiaris; conditions: dog, in vivo, po, 25 mg/kg
Description: Compound was evaluated in vivo in for its concentration using Area under the time-concentration curve after 40 mg/kg peroral administration to dogs.
Respond numerically; units are ng·h/mL and should not be typed.

Some compounds with known AUC results, for comparison:
sampleSmiles	AUC (ng·h/mL)
CC(C)(C)n1cc(C(=O)O)c(=O)c2cc(F)c(N3C[C@H]4C[C@@H]3CN4)nc21	55000
CC(C)(CF)n1cc(C(=O)O)c(=O)c2cc(F)c(N3CC[C@H](N)C3)cc21.CS(=O)(=O)O	7300

# input for lookup
Req: Given `CC(C)(C)n1cc(C(=O)O)c(=O)c2cc(F)c(N3CC[C@H](N)C3)cc21.CS(=O)(=O)O` , state its recorded AUC.
Resp: 30000

----------
Each item that follows carries a reported MIC.
tested on: Staphylococcus aureus; experiment: In vitro antibacterial activity against Staphylococcus aureus A 24227; assay type: functional
Respond numerically; units are µg/mL and should not be typed.

sampleSmiles	val
CC(C)(C)n1cc(C(=O)O)c(=O)c2cc(F)c(N3CCNCC3)nc21	0.25
CC(CF)(CF)n1cc(C(=O)O)c(=O)c2cc(F)c(N3CC4C[C@@H]3CN4)nc21.Cl	2
Cl.O=C(O)c1cn(C(CF)(CF)CF)c2nc(N3CCNCC3)c(F)cc2c1=O	8
CC(C)(C)n1cc(C(=O)O)c(=O)c2cc(F)c(N3C[C@H]4C[C@@H]3CN4)nc21	0.03

Req: Given `CC(CF)(CF)n1cc(C(=O)O)c(=O)c2cc(F)c(N3CC[C@H](N)C3)nc21.CS(=O)(=O)O` , state its recorded MIC.
Resp: 4

Req: Given `C[C@H]1C[C@H](N)CN1c1nc2c(cc1F)c(=O)c(C(=O)O)cn2C(C)(C)CF.Cl` , state its recorded MIC.
Resp: 0.008

Req: Given `CC(CF)(CF)n1cc(C(=O)O)c(=O)c2cc(F)c(N3CCNCC3)cc21.Cl` , state its recorded MIC.
Resp: 2

Req: Given `CN1CCN(c2c(F)cc3c(=O)c(C(=O)O)cn(CCF)c3c2F)CC1` , state its recorded MIC.
Resp: 0.25

----------
assay: in vivo; settings: mouse, in vivo, po, 40 mg/kg
readoutType: Cmax (ng/mL)
Respond numerically; units are ng/mL and should not be typed.

Req: Given O=C(O)c1cn(C2CC2)c2cc(N3CCNCC3)c(F)cc2c1=O [CIPROFLOXACIN] , state its recorded Cmax.
Resp: 6000

----------
Each item that follows carries a reported AUC.
system: Mus musculus; experiment: Compound was evaluated in vivo in blood samples from the orbital sinus for its concentration using Area under the time-concentration curve after 40 mg/kg intramuscular administration to mice; format: ADME, organism-based; design: dose 40 mg/kg, route intramuscular; details: im
Respond numerically; units are ng·h/mL and should not be typed.

Req: Given CN1CCN(c2c(F)cc3c(=O)c(C(=O)O)cn(CCF)c3c2F)CC1 [FLEROXACIN] , state its recorded AUC.
Resp: 32000

----------
test: Compound was evaluated in vivo in blood samples from the orbital sinus for its concentration after an intramuscular administration of 40 mg/kg in mice.; assay type: ADME, organism-based; parameters: dose 40 mg/kg, route intramuscular; conditions: mouse, im
readoutType: Cmax

Req: Given `CC(C)(C)n1cc(C(=O)O)c(=O)c2cc(F)c(N3CC[C@H](N)C3)cc21.CS(=O)(=O)O` , state its recorded Cmax.
Resp: 6000 ng/mL

----------
assay: Compound was tested for the dose to protect 50% of mice from lethal infection against Streptococcus pneumoniae after peroral administration to OF1-strain of female Swiss mice.; assay type: functional; conditions: po, read-out: PD50
Each item that follows carries a reported ED50.

Some compounds with known ED50 results, for comparison:
sampleSmiles	ED50
O=C(O)c1cn(C2CC2)c2cc(N3CCNCC3)c(F)cc2c1=O	> 69 mg/kg
CC(C)(C)n1cc(C(=O)O)c(=O)c2cc(F)c(N3CC[C@H](N)C3)cc21.CS(=O)(=O)O	> 25 mg/kg

Req: Given `CC(C)(CF)n1cc(C(=O)O)c(=O)c2cc(F)c(N3CC[C@H](N)C3)cc21.CS(=O)(=O)O` , state its recorded ED50.
Resp: > 50 mg/kg

Req: Given `CC(C)(C)n1cc(C(=O)O)c(=O)c2cc(F)c(N3C[C@H]4C[C@@H]3CN4)nc21` , state its recorded ED50.
Resp: 29.7 mg/kg

Req: Given `CC(C)(C)n1cc(C(=O)O)c(=O)c2cc(F)c(N3CC[C@H](N)C3)nc21` , state its recorded ED50.
Resp: > 25 mg/kg

Req: Given `CC(C)(CF)n1cc(C(=O)O)c(=O)c2cc(F)c(N3CC4C[C@@H]3CN4)nc21.Cl` , state its recorded ED50.
Resp: 57.4 mg/kg

----------
Each item that follows carries a reported Cmax.
assay: in vivo; settings: dog, po, 25 mg/kg
Description: Compound was evaluated in vivo for its concentration after a peroral administration 40 mg/kg in dogs.
Respond numerically; units are ng/mL and should not be typed.

molecule	Cmax [ng/mL]
CC(C)(C)n1cc(C(=O)O)c(=O)c2cc(F)c(N3C[C@H]4C[C@@H]3CN4)nc21	5600
CC(C)(CF)n1cc(C(=O)O)c(=O)c2cc(F)c(N3CC[C@H](N)C3)cc21.CS(=O)(=O)O	600
O=C(O)c1cn(C2CC2)c2cc(N3CCNCC3)c(F)cc2c1=O [CIPROFLOXACIN]	3000

Req: Given `CC(C)(C)n1cc(C(=O)O)c(=O)c2cc(F)c(N3CC[C@H](N)C3)cc21.CS(=O)(=O)O` , state its recorded Cmax.
Resp: 2800

----------
system: Bacteroides fragilis; assay: Compound was tested in vitro for its antibacterial activity (minimum inhibitory concentration) against Bacteroides fragilis A 22862.; format: functional; details: A22862
Each item that follows carries a reported MIC.
Respond numerically; units are µg/mL and should not be typed.

Some compounds with known MIC results, for comparison:
sampleSmiles	assayTarget	MIC / µg/mL
CC(C)(CF)n1cc(C(=O)O)c(=O)c2cc(F)c(N3C[C@H]4CC3CN4)cc21.Cl	Bacteroides fragilis	8
CC(C)(C)n1cc(C(=O)O)c(=O)c2cc(F)c(N3CC[C@H](N)C3)nc21	Bacteroides fragilis	1

Req: Given `C[C@H]1CN(c2cc3c(cc2F)c(=O)c(C(=O)O)cn3C(C)(C)CF)C[C@@H]1N` , state its recorded MIC.
Resp: 4

Req: Given `CC(C)(CF)n1cc(C(=O)O)c(=O)c2cc(F)c(N3CC[C@H](N)C3)nc21.Cl` , state its recorded MIC.
Resp: 16

Req: Given `CC(CF)(CF)n1cc(C(=O)O)c(=O)c2cc(F)c(N3CCNCC3)cc21.Cl` , state its recorded MIC.
Resp: 16
